System: MALME-3M melanoma
Experimental Details: NCI tumour cell line growth inhibition, 48 h
Record Yes whenever TGI is at 50 µM or higher; record No when lower.

Is reported TGI greater than or equal to 50 µM here: COc1ccc(C2c3cc4c(cc3OC(N3CCOCC3)C2C)OCO4)c(OC)c1 (stereo unspecified)
No

Threshold query (TGI >= 50 µM) on CCCC(=O)N[C@@H](Cc1cc(I)c(O)c(I)c1)C(=O)NCCCNCCCCNCCCNC(=O)[C@@H](N)CCCN=C(N)N
Yes

Kindly determine if TGI recorded for C=CC1(CBr)CCC(C(C)(C)Br)O1 (stereo unspecified) is above or exactly 50 µM.
No

Identify whether the reported TGI of the following molecule is 50 µM or greater: N#CC(C#N)=CN1CCN(C(=O)c2ccccc2)C1=S
Yes

# bool: TGI of Cn1c2ccccc2c2nnc(N/N=C/c3ccccn3)nc21 >= 50 µM
No

In plain terms: is recorded TGI at least 50 µM for CCCN(CCC)C(=O)Cc1c2n(c3ccccc13)Cc1ccccc1-2 ?
Yes

Assess whether reported TGI for O=C(/C(Cl)=C/c1ccccc1)c1ccccc1 sits at 50 µM or higher.
No

Say whether CC(=O)/C=C/c1c[nH]c(=O)[nH]c1=O shows TGI of 50 µM or more.
Yes

Form field: TGI at least 50 µM? Entry: CCc1ccc(CCC(=O)Nc2ncc(Cc3ccccc3)s2)o1
Yes

Does the reported TGI for c1cncc(CNc2ccccc2-c2nnc(Nc3ccc4c(c3)OCCO4)o2)c1 fall at or above the 50 µM mark?
Yes
